target: αVβ6 headpiece (soluble, disulfide-linked: αv headpiece residues 1-594 with M400C and β6 headpiece residues 1-474 with I270C) (UniProt P06756); assay: fluorescence anisotropy; pH 8.0
Sequence (P06756 other isoform, or with tags, fused parts or gaps M400C I270C, chain 1 of 2): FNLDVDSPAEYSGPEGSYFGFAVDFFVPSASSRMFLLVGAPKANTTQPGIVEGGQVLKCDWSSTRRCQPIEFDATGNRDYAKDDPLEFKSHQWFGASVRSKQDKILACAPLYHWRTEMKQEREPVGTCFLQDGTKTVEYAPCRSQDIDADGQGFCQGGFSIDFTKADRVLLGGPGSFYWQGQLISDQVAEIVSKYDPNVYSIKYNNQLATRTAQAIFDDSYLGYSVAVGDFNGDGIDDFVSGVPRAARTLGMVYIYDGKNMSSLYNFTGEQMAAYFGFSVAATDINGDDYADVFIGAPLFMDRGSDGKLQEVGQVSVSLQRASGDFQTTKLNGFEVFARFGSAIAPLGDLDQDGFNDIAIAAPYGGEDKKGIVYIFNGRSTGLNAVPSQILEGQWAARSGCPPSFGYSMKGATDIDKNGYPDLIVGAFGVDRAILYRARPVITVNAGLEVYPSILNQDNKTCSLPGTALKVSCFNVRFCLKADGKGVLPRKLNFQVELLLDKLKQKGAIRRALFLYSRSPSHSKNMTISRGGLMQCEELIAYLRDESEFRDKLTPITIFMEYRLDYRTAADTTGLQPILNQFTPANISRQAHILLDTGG
Sequence (P18564 other isoform, or with tags, fused parts or gaps M400C I270C, chain 2 of 2, further chain): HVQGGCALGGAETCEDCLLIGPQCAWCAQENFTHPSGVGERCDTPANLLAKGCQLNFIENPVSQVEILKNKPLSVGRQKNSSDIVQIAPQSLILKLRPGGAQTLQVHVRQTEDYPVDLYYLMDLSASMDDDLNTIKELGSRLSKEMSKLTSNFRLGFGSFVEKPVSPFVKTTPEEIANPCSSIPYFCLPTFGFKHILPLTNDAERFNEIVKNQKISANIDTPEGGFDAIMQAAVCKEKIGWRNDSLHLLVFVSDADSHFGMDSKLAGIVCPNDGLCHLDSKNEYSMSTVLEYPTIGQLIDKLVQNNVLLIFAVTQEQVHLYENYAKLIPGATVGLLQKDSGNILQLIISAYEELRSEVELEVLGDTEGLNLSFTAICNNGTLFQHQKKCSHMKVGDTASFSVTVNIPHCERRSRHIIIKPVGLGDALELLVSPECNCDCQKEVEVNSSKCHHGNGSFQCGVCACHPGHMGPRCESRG
readout: Kd (nM)
Give bare numbers, in nM.

Exercise: Bench note: what Kd did FITC-GRGDLGRL (SEQ ID NO: 68), FITC-pro-TGF-β3 peptide show?
Key: 84.6

----------
biological target: αVβ6 headpiece (soluble, disulfide-linked: αv headpiece residues 1-594 with M400C and β6 headpiece residues 1-474 with I270C) (UniProt P06756); assay: fluorescence anisotropy; pH 9.0
readout: Kd (nM)
One number for each entry, in nM.

Exercise: Which Kd is listed for FITC-GRGDLGRL (SEQ ID NO: 68), FITC-pro-TGF-β3 peptide ?
Key: 27.4
